System: SR
procedureSummary: In vitro cytotoxicity, Development Therapeutics Program
Type: cell-based
reportedConditions: leukemia, 1.0×10^−5 M
Source text: From the in vitro experiments of the Development Therapeutics Program of the Cancer Research Institute, the United States, it was known that the synthetic heterocyclic anthraquinone derivatives of the present invention have different inhibition levels to the different cancer cell lines under the concentration of 1.0×10^−5 M. Please refer to Table 2, which is the result of in vitro cytotoxicity of 2,7-disubstituted anthraquinone derivatives of the present invention.
recordedEndpoint: Cellular growth rate (%)
Give your result in % as a bare value.

These recorded examples may help you get a feel for the data.
>>> reading("O=C1c2ccc(NC(=O)C3CC3)cc2C(=O)c2cc(NC(=O)C3CC3)ccc21")
1.69
>>> reading("CN(C)CC(=O)Nc1ccc2c(c1)C(=O)c1cc(NC(=O)CN(C)C)ccc1C2=O")
"−46.45"

# next molecule below
Measured Cellular growth rate (%) (SR), entry `CCN(CC)CCC(=O)Nc1ccc2c(c1)C(=O)c1cc(NC(=O)CCN(CC)CC)ccc1C2=O` : −0.39

----------
// reported melting point per item
Give your result in °C as a bare value.

These recorded examples may help you get a feel for the data.
>>> reading("CCCCNCC(=O)Nc1ccc2c(c1)C(=O)c1cc(NC(=O)CNCCCC)ccc1C2=O")
125
>>> reading("O=C1c2ccc(NC(=O)C3CCCCC3)cc2C(=O)c2cc(NC(=O)C3CCCCC3)ccc21")
269
>>> reading("CN1CCN(CCC(=O)Nc2ccc3c(c2)C(=O)c2cc(NC(=O)CCN4CCN(C)CC4)ccc2C3=O)CC1")
284
>>> reading("CCN(CC)CC(=O)Nc1ccc2c(c1)C(=O)c1cc(NC(=O)CN(CC)CC)ccc1C2=O")
241

# next molecule below
The recorded melting point for `O=C(CCl)Nc1ccc2c(c1)C(=O)c1cc(NC(=O)CCl)ccc1C2=O` is 286
